All figures here come from ChEMBL document CHEMBL1136157.

- System: UniProtKB P31652
- Sequence (P31652 whole entry): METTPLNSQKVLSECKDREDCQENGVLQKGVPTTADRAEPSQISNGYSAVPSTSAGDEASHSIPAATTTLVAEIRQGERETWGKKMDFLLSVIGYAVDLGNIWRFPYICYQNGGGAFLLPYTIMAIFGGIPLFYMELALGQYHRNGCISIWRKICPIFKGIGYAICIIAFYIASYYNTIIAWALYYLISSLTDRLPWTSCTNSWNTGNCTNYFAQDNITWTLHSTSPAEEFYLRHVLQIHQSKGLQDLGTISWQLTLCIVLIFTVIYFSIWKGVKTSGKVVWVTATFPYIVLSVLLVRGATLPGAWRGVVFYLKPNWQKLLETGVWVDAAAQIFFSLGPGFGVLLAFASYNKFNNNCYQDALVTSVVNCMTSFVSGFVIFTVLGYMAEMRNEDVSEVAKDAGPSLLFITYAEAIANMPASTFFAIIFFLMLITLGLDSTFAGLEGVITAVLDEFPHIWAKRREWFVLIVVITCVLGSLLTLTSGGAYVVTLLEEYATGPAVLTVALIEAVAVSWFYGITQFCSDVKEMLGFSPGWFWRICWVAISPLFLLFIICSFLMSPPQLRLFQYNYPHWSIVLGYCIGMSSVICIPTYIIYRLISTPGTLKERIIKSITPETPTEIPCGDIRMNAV
- Experiment notes: In vivo effective dose required to inhibit p-chloroamphetamine induced excitation in rats upon subcutaneous administration
- Type: functional, organism-based
Binned ED50; ranges: lower segment = under 0.8 mg/kg, middle segment = from 0.8 mg/kg up to 5 mg/kg, upper segment = 5 mg/kg and over

{"Molecule": "COc1cc2c(cc1OC)C1=NO[C@@H](CN3CCN(C/C=C/c4ccccc4)CC3)[C@@H]1CO2 (stereo in doubt; (+)5)", "System": "UniProtKB P31652", "Answer label": "lower segment"}
{"Molecule": "COc1cc2c(cc1OC)C1=NOC(CN3CCN(Cc4cccc5ccccc45)CC3)C1CO2 (stereo not drawn)", "System": "UniProtKB P31652", "Answer label": "middle segment"}
{"Molecule": "COc1cc2c(cc1OC)C1=NOC(CN3CCN(CC4=Cc5ccccc5C4)CC3)C1CO2 (stereo not drawn)", "System": "UniProtKB P31652", "Answer label": "lower segment"}
{"Molecule": "COc1cc2c(cc1OC)C1=NOC(CN3CCN(CCc4ccccc4)CC3)C1CO2 (stereo not drawn)", "System": "UniProtKB P31652", "Answer label": "upper segment"}
{"Molecule": "COc1cc2c(cc1OC)C1=NO[C@@H](CN3CCN(C/C=C/c4ccccc4)CC3)[C@@H]1CO2 (stereo in doubt; (-)5)", "System": "UniProtKB P31652", "Answer label": "middle segment"}
{"Molecule": "COc1cc2c(cc1OC)C1=NO[C@@H](CN3CCN(C/C=C(\\C)c4ccccc4)CC3)[C@@H]1CO2 (stereo in doubt; (-)15g)", "System": "UniProtKB P31652", "Answer label": "upper segment"}
{"Molecule": "COc1cccc2c1CCC[C@H]2CN(C)CCc1ccc2ccoc2c1", "System": "UniProtKB P31652", "Answer label": "upper segment"}
{"Molecule": "COc1cc2c(cc1OC)C1=NOC(CN3CCN(C/C=C/c4ccccc4)CC3)C1CO2 (stereo not drawn)", "System": "UniProtKB P31652", "Answer label": "lower segment"}
{"Molecule": "COc1cc2c(cc1OC)C1=NOC(CN3CCN(Cc4ccc5ncccc5c4)CC3)C1CO2 (stereo not drawn)", "System": "UniProtKB P31652", "Answer label": "lower segment"}
{"Molecule": "COc1cc2c(cc1OC)C1=NO[C@@H](CN3CCN(Cc4ccc5ccccc5c4)CC3)[C@@H]1CO2 (stereo in doubt; (-)15h)", "System": "UniProtKB P31652", "Answer label": "middle segment"}
{"Molecule": "COc1cc2c(cc1OC)C1=NOC(CN3CCN(Cc4ccccc4)CC3)C1CO2 (stereo not drawn)", "System": "UniProtKB P31652", "Answer label": "upper segment"}
{"Molecule": "COc1cc2c(cc1OC)C1=NOC(CN3CCN(C/C=C(\\C)c4ccccc4)CC3)C1CO2 (stereo not drawn)", "System": "UniProtKB P31652", "Answer label": "lower segment"}
{"Molecule": "Fc1ccc2c(c1)CC(CC1CN=CN1)C2 (stereo not drawn)", "System": "UniProtKB P31652", "Answer label": "middle segment"}
{"Molecule": "COc1cc2c(cc1OC)C1=NOC(CN3CCN(Cc4cc5ccccc5s4)CC3)C1CO2 (stereo not drawn)", "System": "UniProtKB P31652", "Answer label": "middle segment"}
{"Molecule": "COc1cc2c(cc1OC)C1=NO[C@@H](CN3CCN(C/C=C\\c4ccccc4)CC3)[C@@H]1CO2", "System": "UniProtKB P31652", "Answer label": "upper segment"}
{"Molecule": "COc1ccc2c(c1)OCC1C2=NOC1CN1CCN(C/C=C/c2ccccc2)CC1 (stereo not drawn)", "System": "UniProtKB P31652", "Answer label": "middle segment"}
{"Molecule": "COc1cc2c(cc1OC)C1=NO[C@@H](CN3CCN(C/C=C(\\C)c4ccccc4)CC3)[C@@H]1CO2 (stereo in doubt; (+)15g)", "System": "UniProtKB P31652", "Answer label": "lower segment"}
{"Molecule": "COc1cc2c(cc1OC)C1=NO[C@@H](CN3CCN(Cc4ccc5ccccc5c4)CC3)[C@@H]1CO2 (stereo in doubt; (+)15h)", "System": "UniProtKB P31652", "Answer label": "lower segment"}
